growth values by entry
- Tested on: E. coli TESEC Mtb Asd
- procedure-details: growth (OD600 after 10 h); higher = more growth (less inhibition)
- study-conditions: arabinose induction (level): Low; compound 0.1 mM; raw OD600 reference: median of DMSO wells 0.417, cell-free background 0.041
Counter-ions that a name gives are not always drawn.
property-name: growth

[
  {
    "molecule": "CC=CC1=C(C(=O)O)N2C(=O)[C@@H](NC(=O)[C@H](N)c3ccc(O)cc3)[C@H]2SC1",
    "recorded-result": 0.417
  },
  {
    "molecule": "Oc1ccc(C2CNCCc3c2cc(O)c(O)c3Cl)cc1 (configuration not stated)",
    "recorded-result": 0.126
  },
  {
    "molecule": "COc1ccc(CN2CCN(C(c3ccc(F)cc3)c3ccc(F)cc3)CC2)c(OC)c1OC [Lomerizine hydrochloride]",
    "recorded-result": 0.0562
  },
  {
    "molecule": "Clc1ccc(C(Cn2ccnc2)OCc2c(Cl)cccc2Cl)c(Cl)c1 (configuration not stated)",
    "recorded-result": 0.0562
  },
  {
    "molecule": "CCN1CCC[C@H]1CNC(=O)c1c(OC)ccc(Br)c1OC [Remoxipride Hydrochloride]",
    "recorded-result": 0.445
  },
  {
    "molecule": "O=C1CC2(CCCC2)CC(=O)N1CCCCN1CCN(c2ncccn2)CC1 [Buspirone hydrochloride]",
    "recorded-result": 0.439
  },
  {
    "molecule": "CO[C@H]1/C=C/O[C@@]2(C)Oc3c(C)c(O)c4c(O)c(c(/C=N/N5CCN(C)CC5)c(O)c4c3C2=O)NC(=O)/C(C)=C\\C=C\\[C@H](C)[C@H](O)[C@@H](C)[C@@H](O)[C@@H](C)[C@H](OC(C)=O)[C@@H]1C",
    "recorded-result": 0.0572
  }
]

###

- Test system: E. coli TESEC Mtb Asd
- procedure-details: growth (OD600 after 10 h); higher = more growth (less inhibition)
- study-conditions: arabinose induction (level): High; compound 0.1 mM; raw OD600 reference: median of DMSO wells 0.331, cell-free background 0.041
Structures can show the parent of a compound that is named as a salt.
Classify as follows. Reported growth greater than or equal to 0.3: yes (1). Reported growth below: no (0).

[
  {
    "compound": "Cc1ncc(CO)c(CO)c1O [Pyridoxine hydrochloride]",
    "category": "yes (1)"
  },
  {
    "compound": "CN1CCN(C(c2ccccc2)c2ccc(Cl)cc2)CC1 (centres undefined) [Chlorcyclizine hydrochloride]",
    "category": "no (0)"
  },
  {
    "compound": "CCOc1ccc2c(c1)C(C)=CC(C)(C)N2",
    "category": "yes (1)"
  },
  {
    "compound": "Nc1nc(O)c2ncn(CCC(CO)CO)c2n1",
    "category": "no (0)"
  },
  {
    "compound": "CN(C)CCCOc1nn(Cc2ccccc2)c2ccccc12 [Benzydamine hydrochloride]",
    "category": "no (0)"
  },
  {
    "compound": "NS(=O)(=O)c1cc2c(cc1C(F)(F)F)NC(Cc1ccccc1)NS2(=O)=O (centres undefined) [Bendroflumethiazide]",
    "category": "yes (1)"
  },
  {
    "compound": "O=C1Nc2ccc(Cl)cc2[C@@](C#CC2CC2)(C(F)(F)F)O1",
    "category": "no (0)"
  },
  {
    "compound": "CC(CCc1ccccc1)NCC(O)c1ccc(O)c(C(N)=O)c1 (centres undefined) [Labetalol hydrochloride]",
    "category": "no (0)"
  }
]
